Measured apparent KD of MS2 coat protein accompanies every entry in the list below.
Tested on: MS2 coat protein
Test: apparent KD of MS2 coat protein; higher = weaker reporter binding
Conditions: Eterna round: R107; input ligand: theophylline 20 uM
Enter your answer as a number in nM; do not include the unit.

Here's what some known entries look like.
Query sequence	Tested target	Units label	Observed measurement
AUAACAUGAGGAUCACCCAUGUAUUGGUAACGAGGACCGGUACGGCCGCCACUCGUAUUUUGGUGGUAUUAUAUAUAUAUGAUUA [JR_SSTryptoA_Sub017]	MS2 coat protein	nM	28.9
UUAUGCAGGUCGGCCGCCACUACACACAUGAGGAUCACCCAUGUAGUUACUGGGUGAAGUGGCAGUAGGACCGGGACCUGCACAC [Brourdmod14]	MS2 coat protein	nM	403
CAAGACAUGAGGAUCACCCAUGUGGUGUACCGAGGACCGGUACGGCCGCCACUCGUUCAUCGGUCGACAAGCUACCCUUCAAGGU [theeternabot_sameState_MS2_Trp_A_7]	MS2 coat protein	nM	40.4
CCGGGCCCGGGCGACCGGGCCCGGACUGAAGGAGCGGGAAUAAACCCAGGUAGGUCGCAGAGAUCCACAUGAGGAUCACCCAUGU [!0.V]	MS2 coat protein	nM	49.6

Lookup: Name the recorded apparent KD of MS2 coat protein of the sequence listed here: CCGAACAUGAGGAUCACCCAUGUUAGGGAUACCAGCUCAGACAUGGGCCCUUGGCAGCUCUAUAGCUGACGAAAGUCAGCAUCGG [#15 SameState-TheophyllineA]
Found: 46.3

Lookup: Name the recorded apparent KD of MS2 coat protein of the sequence listed here: GGAGGUACCCGAAGGAGCGACAUGAGGAUCACCCAUGUCUCCCGUUAUGGGAGUUCCUUAGGUCAGGUAGGUCGCGGGUACCUCC [#1 Exclusion - Arginine B Attempt #1 (Inspired by Omei)]
Found: 162

----------
System: K4 kissing-loop RNA reporter;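 note: bound reporter read as fluorescence of individual clusters on recovered sequencing chips by microscopy, with normalized cluster intensities fitted with a binding model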
Assay: apparent KD of K4 kissing-loop reporter; higher = weaker reporter binding
Conditions: Eterna round: R107; input ligand: arginine 13.2 mM
Measured apparent KD of K4 kissing-loop reporter accompanies every entry in the list below.
Please answer in the form of a number followed by its unit of measurement.

Query sequence	apparent KD of K4 kissing-loop reporter
AGUGUACAGUCGGCCGCCACUCACUCCUCCUGCGUUAACGAGUGAUGUUUGUUUUUUAGUGGUACGAGGACCGGGACUUCUCUGA [theeternabot_sameState_KL_Trp_B_35]	118 nM
GGAGGGAUCUCGGCCGCCACUCAUAAGAAAUGGGCCUCAGAGAUAUAGUGAUGUUAUGUAAAGAAGAGGACCGGGAGAAAGAAGG [ExTryptoB.Db]	141 nM
CUGCAAAAGUCGGCCGCCACUCCGGGCCCUAUAAAUGGGCGCAGUGAUGUUGCGGCUAGGCCUCUGAGGACCGGGACUUUGUAAC [Aratan]	64.7 nM
AGCAUUUUCAGAAGGAGCGUGAAUUAUUCAUAAUUAUAUUAUACGAGUGAUGUUCGUAUUUCACAGGUAGGUCGCUGAUAUAGCA [JR_SSArginiB_Sub002]	78.3 nM
GUUACGCAUGGAAGGAGCGCUCUCAGGCUUAAUAACACAGUGAUGUUGUGAAUUUGCCUAAAGCAGGUAGGUCGCCAUGUGUAAC [Ex Arginine B K4 9]	400 nM
UUGUUUGGUUGAGAGGUUGGGCGAGAUGAUACCAGUAUAGUAUAGUACCCUUGGCAGCAUAGGAGAGAUAUAGUGAUGUUGUAUG [SSTheophA.V]	288 nM
UGUCAUUGGUCGGCCGCCACUAUAAUAAAAGAGUGAUGUUCUAAAAGACGGACAAAAGUCUGUCGUAGGACCGGGACCGAUGACU [TrypBS 26 #SwitchBubble #StaticStem]	551 nM
GCUAGCAUGGCAGGAUAUAGCAAUAGGAGUGAUGUUCCUUGGUAGGUGAGUGAUGUUCACUACCAACUAGAAGGGCCAUGCUAGC	111 nM

Lookup: Name the recorded apparent KD of K4 kissing-loop reporter of the sequence listed here: AGAGUUAUGCGAGGAUAUGCAGUUAGUACUCAAAGAGUACUAACGCAGAGUGAUGUUCUGUGAAAUGCAGAAGGUGCAUAACUCA [Omei KL FMN B SS B v5]
Found: 316 nM

Lookup: Name the recorded apparent KD of K4 kissing-loop reporter of the sequence listed here: UAAUUUAUGUCUUUAAUAUAAUUUUCAGAUACCAGUGAUUAUUAACACCCUUGGCAGCUGUGUAGAGUGAUGUUCUCAUGCUUAA [#07 K4 Theophylline A Exclusion]
Found: 354 nM

Lookup: Name the recorded apparent KD of K4 kissing-loop reporter of the sequence listed here: CGUUUAUAGCAGGAUACCAGUACGGAUAAAGUACGUUAAUAGUAGAGUGAUGUUCUAAAGUACCCUUGGCAGCUUAGAGUGAGUG [ExTheophylB.O]
Found: 149 nM

Lookup: Name the recorded apparent KD of K4 kissing-loop reporter of the sequence listed here: AGACUACCACACUGUCAAUAGACAGUGGACUAGGAUAUGCUGAUAAGCAGAAGGAGUGAUGUUCCCAGGUAGUCAAUAAAAUAAU [FmnAX 13 G28+C66]
Found: 205 nM

Lookup: Name the recorded apparent KD of K4 kissing-loop reporter of the sequence listed here: AAGUGUCAUUAGACACACGCAUCUAUAAACUAGGAUAUGCUGAUAAGCAGAAGGAGUGAUGUUCCUUUCAUGAUGCGAAUUAAAU [#07 K4 FMN A Exclusion]
Found: 123 nM

Lookup: Name the recorded apparent KD of K4 kissing-loop reporter of the sequence listed here: CCUAUCUCAUACGAUACCAGUGAAAUAAUAUUUAUAAGCAGUGAUGUUGCAUUCCAAGAACACCCUUGGCAGCGUAUGGGAUAGG [Ex Theophylline B K4 19]
Found: 187 nM

Lookup: Name the recorded apparent KD of K4 kissing-loop reporter of the sequence listed here: UACUAUAGUGAUGUUAUAGAUAAAACAGAUACCAGUGUAACAUAACACCCUUGGCAGCUGAUAAGGGAAAGUAUAAAUGUGUAUU [AstrosSSTHe-A#2newdesignED]
Found: 188 nM

Lookup: Name the recorded apparent KD of K4 kissing-loop reporter of the sequence listed here: UUUUAUUAGUAGUGAUGUUACUAAACUGAAGGAGCGAGAUUUAACUCAGGUAGGUCGCAGAAAAUCAAUUAAUUUAUAAAUUAAA [JR_SSArginiA_Sub011]
Found: 87.8 nM

Lookup: Name the recorded apparent KD of K4 kissing-loop reporter of the sequence listed here: GGAUCUGCCAGUGAUGUUGGUUAAUAUAUCAAGGAUAUGACGAAAGUCAGAAGGUGAAAGACUGGACAAAGUCCAGUCGGAUCCA [KL-SSFMN-A20]
Found: 312 nM

Lookup: Name the recorded apparent KD of K4 kissing-loop reporter of the sequence listed here: GGGCGUAUUCACCGAGUGAUGUUCGGAAGGAAGGAUAUUCAAGAUUGAAGAAGGUCCGGCCCAUCGGCCAUUAAACUUGAAAGGU [theeternabot_sameState_KL_FMN_A_48]
Found: 113 nM
